// data source = patent US20220395553A1

Molecular target: human CXCR4 (Homo sapiens, UniProt P61073)
Sequence (P61073 whole entry): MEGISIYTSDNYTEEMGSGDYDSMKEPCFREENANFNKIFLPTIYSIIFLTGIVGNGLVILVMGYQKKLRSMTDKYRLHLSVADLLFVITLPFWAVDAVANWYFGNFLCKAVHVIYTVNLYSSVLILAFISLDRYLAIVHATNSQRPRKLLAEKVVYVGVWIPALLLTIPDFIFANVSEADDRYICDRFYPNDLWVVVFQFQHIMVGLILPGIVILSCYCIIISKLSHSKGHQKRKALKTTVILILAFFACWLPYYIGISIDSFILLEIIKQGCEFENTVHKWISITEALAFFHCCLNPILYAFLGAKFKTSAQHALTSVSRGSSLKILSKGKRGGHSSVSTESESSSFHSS
Assay: CXCR4/CXCL12 binding, HTRF format, single concentration (Example 23)
Design: host or cells: HEK293 (Tag-lite CXCR4 cells, frozen aliquots, transient expression)
Details: 15 nM CXCR4R fluorescent probe, 3 hours, HEK293 Tag-lite CXCR4 cells
Peptide text beside a SMILES is read from it.
PROPERTY_NAME: Percent Inhibition of CXCR4/CXCL12 Binding (400 nM peptide) (%)

• CC(C)C[C@H](NC(=O)[C@H](CO)NC(=O)[C@H](CO)NC(=O)[C@H](CCCNC(=N)N)NC(=O)[C@@H](NC(=O)[C@H](CO)NC(=O)[C@H](Cc1c[nH]cn1)NC(=O)[C@H](Cc1c[nH]cn1)NC(=O)[C@H](Cc1ccc(O)cc1)NC(=O)[C@H](CCCNC(=N)N)NC(=O)[C@H](CCCNC(=N)N)NC(=O)[C@@H](N)CC(C)C)C(C)C)C(=O)N[C@@H](CCCNC(=N)N)C(=O)O [compound 27] (H-LRRYHHSVRSSLR-OH; N-terminus and C-terminus assumed) = 10
• CC(C)C[C@H](NC(=O)[C@H](CO)NC(=O)[C@H](CO)NC(=O)[C@H](CCCNC(=N)N)NC(=O)[C@@H](NC(=O)[C@H](CO)NC(=O)[C@H](Cc1c[nH]cn1)NC(=O)[C@H](Cc1c[nH]cn1)NC(=O)[C@H](Cc1ccc(O)cc1)NC(=O)[C@H](CCCNC(=N)N)NC(=O)[C@H](CCCNC(=N)N)NC(=O)[C@@H](N)CC(C)C)C(C)C)C(=O)N[C@@H](CCCNC(=N)N)C(=O)N1CCC[C@H]1C(=O)N[C@@H](Cc1ccc(O)cc1)C(=O)O [compound 25] (H-LRRYHHSVRSSLRPY-OH; N-terminus and C-terminus assumed) = 0
• CC(C)C[C@H](NC(=O)[C@H](CO)NC(=O)[C@H](CO)NC(=O)[C@H](CCCNC(=N)N)NC(=O)[C@@H](NC(=O)[C@H](CO)NC(=O)[C@H](Cc1c[nH]cn1)NC(=O)[C@H](Cc1c[nH]cn1)NC(=O)[C@H](Cc1ccc(O)cc1)NC(=O)[C@H](CCCNC(=N)N)NC(=O)[C@H](CCC(=O)O)NC(=O)[C@@H](N)CC(C)C)C(C)C)C(=O)N[C@@H](CCCNC(=N)N)C(=O)O [compound 21] (H-LERYHHSVRSSLR-OH; N-terminus and C-terminus assumed) = 20

* * *

Target: human CXCR4 (Homo sapiens, UniProt P61073)
Assay: CXCR4/CXCL12 binding, HTRF format, single concentration (Example 23)
Design: host or cells: HEK293 (Tag-lite CXCR4 cells, frozen aliquots, transient expression)
Details: 15 nM CXCR4R fluorescent probe, 3 hours, HEK293 Tag-lite CXCR4 cells
Peptide text beside a SMILES is read from it.
Here the recorded Percent Inhibition of CXCR4/CXCL12 Binding (400 nM peptide) is given for each entry.
PROPERTY_NAME: Percent Inhibition of CXCR4/CXCL12 Binding (400 nM peptide)

• CC(C)C[C@H](NC(=O)[C@H](CO)NC(=O)[C@H](CO)NC(=O)[C@H](CCCNC(=N)N)NC(=O)[C@@H](NC(=O)[C@H](CO)NC(=O)[C@H](Cc1c[nH]cn1)NC(=O)[C@H](Cc1c[nH]cn1)NC(=O)[C@H](Cc1ccc(O)cc1)NC(=O)[C@H](CCCNC(=N)N)NC(=O)[C@H](CCCNC(=N)N)NC(=O)[C@@H](N)CC(C)C)C(C)C)C(=O)N[C@@H](CCCNC(=N)N)C(=O)N1CCC[C@H]1C(=O)O [compound 26] (H-LRRYHHSVRSSLRP-OH; N-terminus and C-terminus assumed) = 1%
• CC(C)C[C@H](N)C(=O)N[C@@H](CCC(=O)O)C(=O)N[C@@H](CCCNC(=N)N)C(=O)N[C@@H](Cc1ccc(O)cc1)C(=O)N[C@@H](Cc1c[nH]cn1)C(=O)N[C@@H](Cc1c[nH]cn1)C(=O)N[C@@H](CO)C(=O)N[C@H](C(=O)N[C@@H](CCCNC(=N)N)C(=O)N[C@@H](CO)C(=O)N[C@@H](CO)C(=O)O)C(C)C [compound 23] (H-LERYHHSVRSS-OH; N-terminus and C-terminus assumed) = 23%
